- System: ShSQSTM1 A549 cells
- protocol.text: Cell viability / Crystal Violet Cytotoxicity Assay, dose-response IC50, shSQSTM1 A549 cells
- Assay type: cell-based, human
- setup.conditions: ShSQSTM1 A549 cells, Cisplatin 5 days, FIG. 14
measured.property: pIC50
Give bare numbers, as −log10 of the molar value.

Query (compound): N.N.[Cl][Pt][Cl] [Cisplatin] ; field requested: pIC50
4.29

###

- Tested on: ShSQSTM1 A549 cells
- protocol.text: Cell viability / Crystal Violet Cytotoxicity Assay, dose-response IC50, shSQSTM1 A549 cells
- Format: cell-based, human
- setup.conditions: Homo sapiens; ShSQSTM1 A549, dose-response curves (Cell Treatments)
Can you tell me pIC50 for the items I'm about to list?
One number for each entry, as −log10 of the molar value.

CC(=O)O[C@@]12CO[C@@H]1C[C@H](O)[C@@]1(C)C(=O)[C@H](O)C3=C(C)[C@@H](OC(=O)[C@H](O)[C@@H](NC(=O)OC(C)(C)C)c4ccccc4)C[C@@](O)([C@@H](OC(=O)c4ccccc4)[C@H]21)C3(C)C ... 7.67
CC(=O)O[C@H]1C(=O)[C@@]2(C)[C@H]([C@H](OC(=O)c3ccccc3)[C@]3(O)C[C@H](OC(=O)[C@H](O)[C@@H](NC(=O)c4ccccc4)c4ccccc4)C(C)=C1C3(C)C)[C@]1(OC(C)=O)CO[C@@H]1C[C@@H]2O ... 8.43

What value of pIC50 has been reported for the following molecule? COc1cccc2c1C(=O)c1c(O)c3c(c(O)c1C2=O)C[C@@](O)(C(=O)CO)C[C@@H]3O[C@H]1C[C@H](N)[C@H](O)[C@H](C)O1
6.31
